fold change (FC) for assorted compounds
Test: Induction of anti-CD3 antibodies-stimulated human CD4+ T cell activation at 1.11 uM assessed fold increase in CD69 expression measured by flow cytometry analysis; note: reference of the scale not given here
Assay type: functional, T cell line
Enter the number alone.

structureSmiles | fold change (FC)
C[C@H](Cc1nncn1C)c1cccc(NC(=O)c2nc(C(F)(F)F)c[nH]2)c1 | 1.201

Challenge: Look up and report measured fold change (FC) for this entry: Cc1cc(C(=O)Nc2cccc(C3(Cc4nncn4C)COC3)c2)nc(C2CC2)n1
Response given: 1.401

###

Assay: Induction of anti-CD3 antibodies-stimulated human T cell activation at 1 uM assessed fold increase in IL-2 secretion measured by ELISA assay; note: reference of the scale not given here
Type: functional, T cell line
metric: fold change (FC)

Examples with their reported fold change (FC) follow.
molecule | assayValue
Cn1cnnc1C[C@]1(c2cccc(N3Cc4c(cc(CN5CCC6(CC6)C5)cc4C(F)(F)F)C3=O)c2)CCOC1 | >=0.201
Cn1cnnc1CC1(c2cccc(N3Cc4c(cc(CN5CCCc6c5cnn6C)cc4C(F)(F)F)C3=O)c2)COC1 | >=0.201
Cn1cnnc1CC1(c2cccc(NC(=O)c3nc(C4CC4)cs3)c2)COC1 | <=0.05
Cn1cnnc1[C@H](F)C1(c2cccc(N3Cc4c(cc(CN5CCCCC5)cc4C(F)(F)F)C3=O)c2)COC1 | >=0.201
C[C@H](Sc1nncn1C)c1cccc(NC(=O)c2cc(Cl)cc(C(F)(F)F)n2)c1 | <=0.05

Challenge: State its fold change (FC): C[C@@H]1CCN(Cc2cc3c(c(C(F)(F)F)c2)CN(c2cccc(C4(Cc5nncn5C)COC4)c2)C3=O)C[C@H]1F (relative stereo)
Response given: >=0.201

Challenge: State, in one line, measured fold change (FC) of Cn1cnnc1C(F)(F)C(C)(F)c1cccc(N2Cc3c(cc(CN4CC[C@@H](F)C4)cc3C(F)(F)F)C2=O)c1 (single isomer, unassigned)
Response given: >=0.201

Challenge: Fill in reported fold change (FC) for this entry: Cn1cnnc1OC1(c2cccc(N3Cc4c(cc(CN5CCC(F)CC5)cc4C(F)(F)F)C3=O)c2)COC1
Response given: <=0.05

Challenge: Quote fold change (FC) reported for C[C@H](Cc1nncn1C)c1cccc(NC(=O)c2cc(C(=O)N3CC[C@H](O)C3)cc(C(F)(F)F)n2)c1 please.
Response given: >=0.201

###

Assay: Induction of anti-CD3/CD28 antibodies-stimulated human T cell activation at 0.3 uM assessed fold increase in CD25 expression measured by ELISA assay
Assay type: functional, T cell line
metric: fold change (FC)
Simply state the number, no unit and no words.

Example molecules with recorded fold change (FC):
structureSmiles | fold change (FC)
C[C@H](Sc1nncn1C)c1cccc(NC(=O)c2ccc3ccccc3n2)c1 | 1.01
C[C@@H](Sc1nncn1C)c1cccc(NC(=O)c2cccc(C(F)(F)F)n2)c1 | 1.01
Cn1cnnc1C[C@H](c1cccc(N2Cc3c(cccc3C(F)(F)F)C2=O)c1)C(F)(F)F | 1.01

Challenge: Identify the reported fold change (FC) for the following entry. Cc1conc1CC1(c2cccc(NC(=O)c3cc(CN4CCC5(CC5)C4)cc(C4CC4)n3)c2)COC1
Response given: 1.31

###

Experiment: Induction of anti-CD3 antibodies-stimulated human T cell activation at 1 uM assessed fold increase in IL-2 secretion measured by ELISA assay; note: reference of the scale not given here
Type: functional, T cell line
metric: fold change (FC)

compound | fold change (FC)
C[C@H](Cc1nncn1C)c1cc(C2CCOCC2)nc(N2Cc3c(cccc3C(F)(F)F)C2=O)c1 | <=0.05
Cn1cnnc1CC1(c2cccc(NC(=O)c3cc(OC(F)F)cc(C4CC4)n3)c2)COC1 | >=0.201
Cn1cnnc1CC1(c2cccc(N3Cc4c(cc(CN5CCCC6CC65)cc4C(F)(F)F)C3=O)c2)COC1 (stereo not given) | >=0.201
C[C@H](Sc1nncn1C)c1cccc(NC(=O)c2ccnc(C(F)(F)F)n2)c1 | <=0.05

Next item in the queue.
Challenge: Give the value of fold change (FC) reported for the following: C[C@H](Cc1nncn1C)c1cccc(NC(=O)c2ccnc(C(F)(F)F)n2)c1
Response given: >=0.201

###

Experiment: Induction of anti-CD3/CD28 antibodies-stimulated human T cell activation at 1 uM assessed fold increase in CD25 expression measured by ELISA assay
Format: functional, T cell line
Recorded measurements of fold change (FC), one per entry
Answer using only a numeral; do not append any unit.

Below, 3 compounds whose answers are already recorded.
compound | assayValue
Cn1cnnc1C(F)(F)[C@](C)(F)c1cccc(N2Cc3c(cc(CN4CCC(F)(F)C4)cc3C(F)(F)F)C2=O)c1 | 1.01
Cc1[nH]ncc1-c1cc2c(c(C(F)(F)F)c1)CN(c1cccc([C@H](C)Cc3nncn3C)c1)C2=O | 1.51
C[C@H](Cc1nncn1C)c1cc(C2CC2)nc(N2Cc3c(cccc3C(F)(F)F)C2=O)c1 | 1.01

Challenge: Using the record for C[C@H](Cc1nncn1C)c1cccc(NC(=O)c2cc(C(=O)N3CC[C@](C)(O)C3)ccn2)c1 , state its measured fold change (FC).
Response given: 1.31

Challenge: Give reported fold change (FC) value for C[C@H](Cc1nncn1C)c1cccc(N2Cc3c(cc([C@H](C)N4CC[C@H](F)C4)cc3C(F)(F)F)C2=O)c1
Response given: 1.31

Challenge: For the compound Cn1cnnc1[C@@H]1CC[C@@H]1c1cccc(N2Cc3c(cccc3C(F)(F)F)C2=O)c1 , report fold change (FC).
Response given: 1.01

Challenge: Give me measured fold change (FC), please, for this compound: Cn1cnnc1CC1(c2cccc(NC(=O)c3cc(C4CC4)nc4ccnn34)c2)COC1
Response given: 1.01

Challenge: Please give the documented fold change (FC) of Cn1cnnc1CC1(c2cccc(N3Cc4c(cc(CN5CCC6(CC5)CC6)cc4C(F)(F)F)C3=O)c2)COC1
Response given: 1.51

Challenge: Report measured fold change (FC); entry is C[C@H](Cc1nncn1C)c1cccc(NC(=O)c2[nH]nc3c2CCCC3)c1
Response given: 1.01

Challenge: Please indicate fold change (FC) recorded for Cn1cnnc1CC1(c2cccc(N3Cc4c(cc(CN5CCC[C@@H](F)C5)cc4C(F)(F)F)C3=O)c2)COC1
Response given: 1.31

Challenge: Specify reported fold change (FC) for the compound shown: COC1CCN(Cc2cc3c(c(C(F)(F)F)c2)CN(c2cccc(C4(Cc5nncn5C)COC4)c2)C3=O)CC1
Response given: 1.51

###

Overview of recorded Kd for various compounds
Molecular target: E3 ubiquitin-protein ligase CBL-B (Homo sapiens, UniProt Q13191)
Sequence (Q13191 whole entry, the tested form may be a part): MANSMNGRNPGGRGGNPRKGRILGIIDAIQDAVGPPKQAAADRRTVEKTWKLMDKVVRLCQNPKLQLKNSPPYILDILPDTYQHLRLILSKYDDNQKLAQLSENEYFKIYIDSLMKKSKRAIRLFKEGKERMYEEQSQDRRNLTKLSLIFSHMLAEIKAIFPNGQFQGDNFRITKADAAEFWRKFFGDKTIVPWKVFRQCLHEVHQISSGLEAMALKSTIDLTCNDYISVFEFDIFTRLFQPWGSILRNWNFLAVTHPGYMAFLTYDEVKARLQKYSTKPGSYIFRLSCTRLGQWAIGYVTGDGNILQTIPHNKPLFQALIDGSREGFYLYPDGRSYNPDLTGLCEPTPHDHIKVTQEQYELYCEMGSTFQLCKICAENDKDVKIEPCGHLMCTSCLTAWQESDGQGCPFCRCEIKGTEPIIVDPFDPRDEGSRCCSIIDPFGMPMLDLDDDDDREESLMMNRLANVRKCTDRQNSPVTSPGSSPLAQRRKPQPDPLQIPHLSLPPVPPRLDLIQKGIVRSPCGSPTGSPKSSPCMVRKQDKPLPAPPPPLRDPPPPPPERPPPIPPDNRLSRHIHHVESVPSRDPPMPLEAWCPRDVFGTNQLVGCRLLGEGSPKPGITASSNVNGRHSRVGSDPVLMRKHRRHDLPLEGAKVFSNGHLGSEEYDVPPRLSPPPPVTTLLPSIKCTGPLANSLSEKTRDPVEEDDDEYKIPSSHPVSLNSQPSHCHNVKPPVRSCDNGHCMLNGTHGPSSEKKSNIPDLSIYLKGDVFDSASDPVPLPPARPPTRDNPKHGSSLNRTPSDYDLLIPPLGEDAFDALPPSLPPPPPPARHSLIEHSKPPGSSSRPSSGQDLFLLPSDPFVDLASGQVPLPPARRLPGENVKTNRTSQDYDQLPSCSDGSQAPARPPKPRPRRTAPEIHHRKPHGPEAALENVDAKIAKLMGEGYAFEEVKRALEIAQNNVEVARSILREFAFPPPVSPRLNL
Experiment: Binding affinity towards N-terminal biotinylated Avi-tagged human CBL-B (36 to 427 residues) measured by surface plasmon resonance assay

Answered examples (2):
compound | Kd
COc1ccccc1C(=O)Nc1cccc(C(C)Sc2nncn2C)c1 (configuration not stated) | > 10 µM
C[C@H](Cc1nncn1C)c1cccc(NC(=O)c2cc(C(=O)N3CC(O)C(F)(F)C3)ccn2)c1 (some centres not stated) | > 10 µM

Challenge: Find the measured Kd of C[C@H](c1cc2c(c(C(F)(F)F)c1)CN(c1cccc(C3(C(F)(F)c4nncn4C)COC3)c1)C2=O)N1CC[C@H](F)C1 and report it.
Response given: < 0.1 µM

Challenge: // Input: CC(Sc1nncn1C)c1cccc(NC(=O)c2ccc3ccccc3n2)c1 (configuration not stated) . Output its Kd only.
Response given: ≥ 1 µM

Challenge: Answer with the recorded Kd of C[C@H](Cc1ncnn1C)c1cccc(N2Cc3c(cccc3C(F)(F)F)C2=O)c1 only.
Response given: > 10 µM

Challenge: Give recorded Kd. CNc1cc([C@H](C)Cc2nncn2C)cc(N2Cc3c(cccc3C(F)(F)F)C2=O)n1
Response given: < 0.1 µM

Challenge: Read off the recorded Kd for CC(Sc1nncn1C)c1cccc(NC(=O)c2ccccn2)c1 (configuration not stated)
Response given: > 10 µM

###

Assay: Induction of anti-CD3 antibodies-stimulated human T cell activation at 1 uM assessed fold increase in CD25 expression measured by ELISA assay; note: reference of the scale not given here
Assay type: functional, T cell line
metric: fold change (FC)
Format: numeric value only, no unit, no commentary.

Below are worked cases with known answers.
compound | fold change (FC)
C[C@H](Cc1nncn1C)c1cccc(NC(=O)c2ccnc(C(F)(F)F)n2)c1 | 0.801
C[C@H](Sc1nncn1C)c1cccc(NC(=O)c2cc(Cl)cc(C(F)(F)F)n2)c1 | 0.601
Cn1cnnc1[C@@H]1CC[C@@H]1c1cccc(N2Cc3c(cccc3C(F)(F)F)C2=O)c1 | 0.601
Cc1cc(C(=O)Nc2cccc([C@]3(Cc4nncn4C)CCOC3)c2)nc(C2CC2)n1 (single isomer, unassigned) | 0.601
Cn1cnnc1C(F)(F)[C@](C)(F)c1cccc(N2Cc3c(cc(C(=O)N4CC(C(F)F)C4)cc3C(F)(F)F)C2=O)c1 | 0.601
C[C@H](Cc1nncn1C)c1cccc(N2Cc3c(ccnc3C3CC3)C2=O)c1 | 0.601

Next compound, please.
Challenge: Answer with the recorded fold change (FC) for the compound listed here: C[C@H](Cc1nncn1C)c1cc(OC2COC2)nc(N2Cc3c(cccc3C(F)(F)F)C2=O)c1
Response given: 0.601
